Values were extracted from the supplement of paper PMC9112550.

Listing of entries alongside the reported shrunken log2 fold change.
Tested on: Escherichia coli TOP10
test_protocol: shrunken log2 fold change of peptide-encoding DNA abundance (4.5 h post-induction vs induction); higher = less antimicrobial activity (less host growth inhibition)
test_parameters: time post-induction: 4.5 h; library: site-saturation at positions 5, 18, 19, 20
When you answer, write just the number.

// known answers, use as guide
INSERT INTO results (sequence_input, attribute_measured, readout_value) VALUES
  ('RRIRNRPPRLPRPRPRPIWTPRP', 'shrunken log2 fold change', -0.115),
  ('RRIRQRPPRLPRPRPRPNTDPRP', 'shrunken log2 fold change', -0.166),
  ('RRIRWRPPRLPRPRPRPGFIPRP', 'shrunken log2 fold change', 0.0297);

Note: attention shifts to another entry.
GET /value?item= `RRIRGRPPRLPRPRPRPRWAPRP` &field=shrunken log2 fold change returns 0.702

----------
Tested on: Escherichia coli TOP10
test_protocol: shrunken log2 fold change of peptide-encoding DNA abundance (4.5 h post-induction vs induction); higher = less antimicrobial activity (less host growth inhibition)
test_parameters: time post-induction: 4.5 h; library: site-saturation at positions 5, 18, 19, 20
attribute_measured: shrunken log2 fold change

Below, each entry is followed by its recorded shrunken log2 fold change result.
INSERT INTO measurements (sequence_input, readout_value) VALUES
  ('RRIRNRPPRLPRPRPRPNREPRP', 0.00564),
  ('RRIRTRPPRLPRPRPRPPGWPRP', 0.758);

Observed shrunken log2 fold change, Escherichia coli TOP10, `RRIRGRPPRLPRPRPRPHGVPRP` : 0.00437

----------
Test system: Escherichia coli TOP10
test_protocol: shrunken log2 fold change of peptide-encoding DNA abundance (4.5 h post-induction vs induction); higher = less antimicrobial activity (less host growth inhibition)
test_parameters: time post-induction: 4.5 h; library: site-saturation at positions 5, 18, 19, 20
attribute_measured: shrunken log2 fold change
Just the number, please, no unit after it.

INSERT INTO assay_data (sequence_input, readout_value) VALUES
  ('RRIRHRPPRLPRPRPRPHHPPRP', 0.0301),
  ('RRIRSRPPRLPRPRPRPVMSPRP', 0.11),
  ('RRIRKRPPRLPRPRPRPMVFPRP', -0.0194),
  ('RRIRFRPPRLPRPRPRPWQHPRP', -0.0848),
  ('RRIRQRPPRLPRPRPRPAKMPRP', -0.207);

Recorded shrunken log2 fold change (sequence `RRIRCRPPRLPRPRPRPTMNPRP` ): -0.421

Form field shrunken log2 fold change, entry `RRIRPRPPRLPRPRPRPRYFPRP` : 0.0508

----------
Test system: Escherichia coli TOP10
test_protocol: shrunken log2 fold change of peptide-encoding DNA abundance (4.5 h post-induction vs induction); higher = less antimicrobial activity (less host growth inhibition)
test_parameters: time post-induction: 4.5 h; library: site-saturation at positions 5, 18, 19, 20
attribute_measured: shrunken log2 fold change
Output: the number by itself.

INSERT INTO results (sequence_input, attribute_measured, readout_value) VALUES
  ('RRIRLRPPRLPRPRPRPRKQPRP', 'shrunken log2 fold change', 0.0587),
  ('RRIRNRPPRLPRPRPRPACEPRP', 'shrunken log2 fold change', 0.172);

Now consider the entry below.
Field shrunken log2 fold change (entry `RRIRIRPPRLPRPRPRPRSHPRP` ) reads -0.287

----------
Test system: Escherichia coli TOP10
test_protocol: shrunken log2 fold change of peptide-encoding DNA abundance (4.5 h post-induction vs induction); higher = less antimicrobial activity (less host growth inhibition)
test_parameters: time post-induction: 4.5 h; library: site-saturation at positions 5, 18, 19, 20
Parameter: shrunken log2 fold change. Scope: all listed entries.
Kindly provide the number alone.

INSERT INTO results (sequence_input, readout_value) VALUES
  ('RRIRRRPPRLPRPRPRPHNPPRP', -0.0181),
  ('RRIRHRPPRLPRPRPRPFGVPRP', -0.326);

Now take the following sequence into account.
# shrunken log2 fold change of `RRIRQRPPRLPRPRPRPGKRPRP` = 0.244

----------
System: Escherichia coli TOP10
test_protocol: shrunken log2 fold change of peptide-encoding DNA abundance (4.5 h post-induction vs induction); higher = less antimicrobial activity (less host growth inhibition)
test_parameters: time post-induction: 4.5 h; library: site-saturation at positions 5, 18, 19, 20
Rule: Met for shrunken log2 fold change not less than 0.03, Not met for anything less.

Tell me whether shrunken log2 fold change is at least 0.03 here: `RRIRPRPPRLPRPRPRPMFNPRP` Not met

----------
Tested on: Escherichia coli TOP10
test_protocol: shrunken log2 fold change of peptide-encoding DNA abundance (4.5 h post-induction vs induction); higher = less antimicrobial activity (less host growth inhibition)
test_parameters: time post-induction: 4.5 h; library: site-saturation at positions 5, 18, 19, 20
So basically: shrunken log2 fold change at 0.1 or higher? That is Satisfied. Lower than 0.1? That is Not satisfied.

# example entries with known answers
INSERT INTO measurements (sequence_input, label) VALUES
  ('RRIRYRPPRLPRPRPRPQMIPRP', 'Not satisfied'),
  ('RRIRQRPPRLPRPRPRPHSMPRP', 'Not satisfied'),
  ('RRIRMRPPRLPRPRPRPQHEPRP', 'Satisfied'),
  ('RRIRSRPPRLPRPRPRPKYDPRP', 'Not satisfied'),
  ('RRIRCRPPRLPRPRPRPPRWPRP', 'Satisfied');

API: above_or_equal(metric=shrunken log2 fold change, cutoff=0.1) for item `RRIRNRPPRLPRPRPRPFYDPRP` Satisfied

Given `RRIRSRPPRLPRPRPRPKHNPRP` , state whether its shrunken log2 fold change is at least 0.1. Not satisfied

Is shrunken log2 fold change at least 0.1? Consider `RRIRIRPPRLPRPRPRPPVWPRP` Satisfied

Quick check: does `RRIRERPPRLPRPRPRPKLCPRP` have shrunken log2 fold change greater than or equal to 0.1? Not satisfied

----------
Quick reference for shrunken log2 fold change among some sequences
Test system: Escherichia coli TOP10
test_protocol: shrunken log2 fold change of peptide-encoding DNA abundance (4.5 h post-induction vs induction); higher = less antimicrobial activity (less host growth inhibition)
test_parameters: time post-induction: 4.5 h; library: site-saturation at positions 5, 18, 19, 20
In your answer, state the number alone without any accompanying words.

Known shrunken log2 fold change results, listed for orientation:
INSERT INTO assay_data (sequence_input, target_or_system, attribute_measured, readout_value) VALUES
  ('RRIRPRPPRLPRPRPRPWERPRP', 'Escherichia coli TOP10', 'shrunken log2 fold change', 0.0097),
  ('RRIRARPPRLPRPRPRPQAKPRP', 'Escherichia coli TOP10', 'shrunken log2 fold change', 0.0548),
  ('RRIRKRPPRLPRPRPRPRNYPRP', 'Escherichia coli TOP10', 'shrunken log2 fold change', 0.374);

We now examine a further sequence.
Form: item `RRIRYRPPRLPRPRPRPCHAPRP` ; test system Escherichia coli TOP10; shrunken log2 fold change: -0.702

----------
Tested on: Escherichia coli TOP10;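 also: peptides expressed intracellularly from a pBAD plasmid library in pooled LB shake-flask culture, induced with 0.3% L-arabinose, DNA abundance read by NGS, three biological replicates, DESeq2 with apeglm shrinkage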
test_protocol: shrunken log2 fold change of peptide-encoding DNA abundance (4.5 h post-induction vs induction); higher = less antimicrobial activity (less host growth inhibition)
test_parameters: time post-induction: 4.5 h; library: site-saturation at positions 5, 18, 19, 20
# cutoff 0.02 applies to shrunken log2 fold change; >= gives True, < gives False

INSERT INTO measurements (sequence_input, label) VALUES
  ('RRIRTRPPRLPRPRPRPWLKPRP', 'True'),
  ('RRIRHRPPRLPRPRPRPWSWPRP', 'False'),
  ('RRIRYRPPRLPRPRPRPAFPPRP', 'False'),
  ('RRIRWRPPRLPRPRPRPCWQPRP', 'False'),
  ('RRIRDRPPRLPRPRPRPIVRPRP', 'False');

Assess whether reported shrunken log2 fold change for `RRIRLRPPRLPRPRPRPYHDPRP` sits at 0.02 or higher. False

For this sequence, is measured shrunken log2 fold change 0.02 or higher? `RRIRIRPPRLPRPRPRPVCQPRP` False

Given the entry `RRIRNRPPRLPRPRPRPNEKPRP` , answer whether its shrunken log2 fold change meets or surpasses 0.02. False

Quick check: does `RRIRKRPPRLPRPRPRPWDCPRP` have shrunken log2 fold change greater than or equal to 0.02? True

Hi team, for `RRIRIRPPRLPRPRPRPEIFPRP` , is the recorded shrunken log2 fold change at or above 0.02? False

State whether the measured shrunken log2 fold change reaches 0.02, counting equality as reaching it, for `RRIRGRPPRLPRPRPRPTCRPRP` True

Does the sequence `RRIRHRPPRLPRPRPRPHTCPRP` have recorded shrunken log2 fold change that is 0.02 or more? False

Given the entry `RRIRARPPRLPRPRPRPETEPRP` , answer whether its shrunken log2 fold change meets or surpasses 0.02. True
